Listed next: entries and their corresponding Percentage of p63a-positive cells.
Tested on: human limbal stem cells
Experiment: Human limbal stem cell population expansion and measurement (expansion factor, p63alpha-positive cells)
Assay type: cell-based
Settings: 10 micromolar in XVIVO15 medium, two passages; share of Sytox Orange-positive nuclei expressing p63alpha
Give your result in % as a bare value.

Field: example entries. Status: answers known.
molecule | test system | Percentage of p63a-positive cells [%]
FC(F)(F)C1CN(c2nc(-c3ccncc3)nc3cnccc23)CCN1 (stereo not shown) | human limbal stem cells | 90
CCCNc1nc(-c2c[nH]nc2C(F)(F)F)nc2cnccc12 | human limbal stem cells | 86

**Query** Given `CC(C)(C)Nc1cc(-c2ccncc2)nc2cnccc12` , report its Percentage of p63a-positive cells on human limbal stem cells.
**Result** 93

**Query** Given `FC(F)(F)C1(Nc2nc(-c3ccncc3)cc3cnccc23)CC1` , report its Percentage of p63a-positive cells on human limbal stem cells.
**Result** 95
